Entry source: patent US10781224B2

Tested on: corn (Krasnodar 385 MV variety)
assay_summary: Corn seed treatment with BHMPA salts: germination energy and germination rate
Format: in vivo
settings: 1·10^−10% solution
quantity_name: Germination energy (%)

{"molecule": "O=P([O-])(CO)CO.O=P([O-])(CO)CO.[Mg+2] [Mg-salt, Magnesium BHMPA Salt]", "test_target": "corn (Krasnodar 385 MV variety)", "quantity_unit": "%", "recorded_number": 90.3}
{"molecule": "O=P([O-])(CO)CO.O=P([O-])(CO)CO.[Zn+2] [Zn-salt, Zinc BHMPA Salt]", "test_target": "corn (Krasnodar 385 MV variety)", "quantity_unit": "%", "recorded_number": 82.3}
{"molecule": "O=P([O-])(CO)CO.O=P([O-])(CO)CO.[Ca+2] [Ca-salt, Calcium BHMPA Salt]", "test_target": "corn (Krasnodar 385 MV variety)", "quantity_unit": "%", "recorded_number": 87.8}
{"molecule": "O.O.O=P([O-])(CO)CO.O=P([O-])(CO)CO.[Co+2] [Co-salt, Cobalt BHMPA Salt]", "test_target": "corn (Krasnodar 385 MV variety)", "quantity_unit": "%", "recorded_number": 79.2}
{"molecule": "O.O.O=P([O-])(CO)CO.O=P([O-])(CO)CO.[Mn+2] [Mn-salt, Manganese BHMPA Salt]", "test_target": "corn (Krasnodar 385 MV variety)", "quantity_unit": "%", "recorded_number": 85.0}
{"molecule": "O=P([O-])(CO)CO.[Na+] [Na-salt, Sodium BHMPA Salt]", "test_target": "corn (Krasnodar 385 MV variety)", "quantity_unit": "%", "recorded_number": 89.7}

---

Tested on: rice (Diamant variety)
assay_summary: Rice seed treatment with BHMPA salts: germinating power
Assay type: in vivo
settings: rice seeds; solution concentration 1 · 10^−11%
Let's look at some compounds and their measured Length, sprout, + % to control.
quantity_name: Length, sprout, + % to control (%)

{"compound": "O=P([O-])(CO)CO.O=P([O-])(CO)CO.[Mg+2] [Mg-salt, Magnesium BHMPA Salt]", "recorded_number": 15}
{"compound": "O.O.O=P([O-])(CO)CO.O=P([O-])(CO)CO.[Mn+2] [Mn-salt, Manganese BHMPA Salt]", "recorded_number": 16}
{"compound": "O.O.O=P([O-])(CO)CO.O=P([O-])(CO)CO.[Co+2] [Co-salt, Cobalt BHMPA Salt]", "recorded_number": 22}
{"compound": "O=P([O-])(CO)CO.[Na+] [Na-salt, Sodium BHMPA Salt]", "recorded_number": 90}
{"compound": "O=P([O-])(CO)CO.O=P([O-])(CO)CO.[Ca+2] [Ca-salt, Calcium BHMPA Salt]", "recorded_number": 16}

---

System: winter wheat (Vershin variety)
assay_summary: Winter wheat seed treatment with BHMPA salts: germinating power (length and mass of roots and sprouts)
Format: in vivo
settings: 1·10^−10% solution
Would you mind labelling by Mass, dry, sprout? At or over 0.7 g/100 plantlings is Met, under is Not met.

{"compound": "O.O.O=P([O-])(CO)CO.O=P([O-])(CO)CO.[Co+2] [Co-salt, Cobalt BHMPA Salt]", "discrete_label": "Not met"}
{"compound": "O=P([O-])(CO)CO.[Na+] [Na-salt, Sodium BHMPA Salt]", "discrete_label": "Not met"}
{"compound": "O.O.O=P([O-])(CO)CO.O=P([O-])(CO)CO.[Mn+2] [Mn-salt, Manganese BHMPA Salt]", "discrete_label": "Met"}
{"compound": "O=P([O-])(CO)CO.O=P([O-])(CO)CO.[Mg+2] [Mg-salt, Magnesium BHMPA Salt]", "discrete_label": "Met"}
{"compound": "O=P([O-])(CO)CO.O=P([O-])(CO)CO.[Ca+2] [Ca-salt, Calcium BHMPA Salt]", "discrete_label": "Not met"}
{"compound": "O=P([O-])(CO)CO.O=P([O-])(CO)CO.[Zn+2] [Zn-salt, Zinc BHMPA Salt]", "discrete_label": "Met"}

---

System: rice (Diamant variety)
assay_summary: Rice seed treatment with BHMPA salts: germinating power
Format: in vivo
settings: rice seeds; solution concentration 1 · 10^−10%

{"compound": "O.O.O=P([O-])(CO)CO.O=P([O-])(CO)CO.[Co+2] [Co-salt, Cobalt BHMPA Salt]", "test_target": "rice (Diamant variety)", "quantity_unit": "g/100 plantlings", "Mass, wet, root": 1.03}
{"compound": "O.O.O=P([O-])(CO)CO.O=P([O-])(CO)CO.[Mn+2] [Mn-salt, Manganese BHMPA Salt]", "test_target": "rice (Diamant variety)", "quantity_unit": "g/100 plantlings", "Mass, wet, root": 1.33}
{"compound": "O=P([O-])(CO)CO.[Na+] [Na-salt, Sodium BHMPA Salt]", "test_target": "rice (Diamant variety)", "quantity_unit": "g/100 plantlings", "Mass, wet, root": 1.26}
{"compound": "O=P([O-])(CO)CO.O=P([O-])(CO)CO.[Ca+2] [Ca-salt, Calcium BHMPA Salt]", "test_target": "rice (Diamant variety)", "quantity_unit": "g/100 plantlings", "Mass, wet, root": 1.27}
{"compound": "O=P([O-])(CO)CO.O=P([O-])(CO)CO.[Mg+2] [Mg-salt, Magnesium BHMPA Salt]", "test_target": "rice (Diamant variety)", "quantity_unit": "g/100 plantlings", "Mass, wet, root": 1.62}

---

Test system: winter wheat (Vershin variety)
assay_summary: Winter wheat seed treatment with BHMPA salts: germinating power (length and mass of roots and sprouts)
Assay type: in vivo
settings: 1·10^−11% solution
Procedure: Experimental versions—soaking seeds in BHMPA solutions and solutions of BHMPA Ca, Mg, Na, Co, Mn, Cu, and Zn salts at 1·10^−6-1·10^−12% concentrations (doses). The studies were conducted in laboratory in Petri dishes; seed bed—two layers of filter paper. […] Seed germination energy and rate were calculated in percent as an arithmetic mean of the four experimental results (germination energy on the 4th day, wheat germination on the 8th day, rice and corn germination—on the 7th day). […]

{"compound": "O=P([O-])(CO)CO.O=P([O-])(CO)CO.[Ca+2] [Ca-salt, Calcium BHMPA Salt]", "test_target": "winter wheat (Vershin variety)", "Mass, wet, sprout": "5.50 g/100 plantlings"}
{"compound": "O=P([O-])(CO)CO.O=P([O-])(CO)CO.[Mg+2] [Mg-salt, Magnesium BHMPA Salt]", "test_target": "winter wheat (Vershin variety)", "Mass, wet, sprout": "5.94 g/100 plantlings"}
{"compound": "O=P([O-])(CO)CO.O=P([O-])(CO)CO.[Zn+2] [Zn-salt, Zinc BHMPA Salt]", "test_target": "winter wheat (Vershin variety)", "Mass, wet, sprout": "4.92 g/100 plantlings"}
{"compound": "O.O.O=P([O-])(CO)CO.O=P([O-])(CO)CO.[Co+2] [Co-salt, Cobalt BHMPA Salt]", "test_target": "winter wheat (Vershin variety)", "Mass, wet, sprout": "3.78 g/100 plantlings"}
{"compound": "O.O.O=P([O-])(CO)CO.O=P([O-])(CO)CO.[Mn+2] [Mn-salt, Manganese BHMPA Salt]", "test_target": "winter wheat (Vershin variety)", "Mass, wet, sprout": "4.00 g/100 plantlings"}
{"compound": "O=P([O-])(CO)CO.[Na+] [Na-salt, Sodium BHMPA Salt]", "test_target": "winter wheat (Vershin variety)", "Mass, wet, sprout": "5.11 g/100 plantlings"}

---

Tested on: winter wheat (Vershin variety)
assay_summary: Winter wheat seed treatment with BHMPA salts: germinating power (length and mass of roots and sprouts)
Type: in vivo
settings: 1·10^−8% solution
The label Fulfilled is reserved for Mass, wet, sprout, + % to control strictly under 5%; Not fulfilled covers values equal to or above it.

{"compound": "O=P([O-])(CO)CO.[Na+] [Na-salt, Sodium BHMPA Salt]", "discrete_label": "Not fulfilled"}
{"compound": "O.O.O=P([O-])(CO)CO.O=P([O-])(CO)CO.[Mn+2] [Mn-salt, Manganese BHMPA Salt]", "discrete_label": "Not fulfilled"}
{"compound": "O.O.O=P([O-])(CO)CO.O=P([O-])(CO)CO.[Co+2] [Co-salt, Cobalt BHMPA Salt]", "discrete_label": "Not fulfilled"}
{"compound": "O=P([O-])(CO)CO.O=P([O-])(CO)CO.[Mg+2] [Mg-salt, Magnesium BHMPA Salt]", "discrete_label": "Fulfilled"}

---

Test system: rice (Diamant variety)
assay_summary: Rice seed treatment with BHMPA salts: germinating power
Format: in vivo
settings: rice seed treatment, comparison with Melaphen (Table XXXIII), solution 1 · 10^−9%

{"molecule": "O.O.O=P([O-])(CO)CO.O=P([O-])(CO)CO.[Co+2] [Co-salt, Cobalt BHMPA Salt]", "Mass, dry, root / g/100 plantlings": 0.25}
{"molecule": "O=P([O-])(CO)CO.O=P([O-])(CO)CO.[Zn+2] [Zn-salt, Zinc BHMPA Salt]", "Mass, dry, root / g/100 plantlings": 0.28}
{"molecule": "O=P([O-])(CO)CO.O=P([O-])(CO)CO.[Ca+2] [Ca-salt, Calcium BHMPA Salt]", "Mass, dry, root / g/100 plantlings": 0.23}
{"molecule": "O.O.O=P([O-])(CO)CO.O=P([O-])(CO)CO.[Mn+2] [Mn-salt, Manganese BHMPA Salt]", "Mass, dry, root / g/100 plantlings": 0.24}
